Values compiled from paper PMC3734847.

- assay_procedure: Pharmacokinetic study of EF31 i.p. in mice
- Assay type: in vivo, ND4 Swiss Webster mice
- assay_setup: male, ND4 Swiss Webster, mouse, plasma, ip, 25 mg/kg
metric: AUC(0-inf) (ng·h/mL)
Numeric answer only, unit ng·h/mL assumed.

*Q* Provide only the value of recorded AUC(0-inf) for O=C1C(=Cc2ccccn2)CNCC1=Cc1ccccn1
*A* 7770

---

- assay_procedure: Pharmacokinetic study of EF31 i.p. in mice
- Type: in vivo, ND4 Swiss Webster mice
- assay_setup: male, ND4 Swiss Webster, mouse, plasma, ip, 25 mg/kg, Tmax, mouse plasma, 25 mg/kg i.p. single dose, DMSO/0.5% CMC (10%/90%)
metric: Tmax (min)
Numeric answer only, unit min assumed.

*Q* Provide only the value of recorded Tmax for O=C1C(=Cc2ccccn2)CNCC1=Cc1ccccn1 [EF31]
*A* 30

---

- assay_procedure: Pharmacokinetic study of EF31 i.p. in mice
- Format: in vivo, ND4 Swiss Webster mice
- assay_setup: male, ND4 Swiss Webster, mouse, plasma, ip, 12.5 mg/kg, Cmax, mouse plasma, 12.5 mg/kg i.p. single dose
metric: Cmax (ng/mL)
Numeric answer only, unit ng/mL assumed.

*Q* Provide only the value of recorded Cmax for O=C1C(=Cc2ccccn2)CNCC1=Cc1ccccn1
*A* 1070

---

- assay_procedure: Pharmacokinetic study of EF31 i.p. in mice
- Assay type: in vivo, ND4 Swiss Webster mice
- assay_setup: male, ND4 Swiss Webster, mouse, plasma, ip, 12.5 mg/kg
metric: AUC(0-inf) (ng·h/mL)
Numeric answer only, unit ng·h/mL assumed.

*Q* Provide only the value of recorded AUC(0-inf) for O=C1C(=Cc2ccccn2)CNCC1=Cc1ccccn1
*A* 3390

---

- assay_procedure: Pharmacokinetic study of EF31 i.p. in mice
- Assay type: in vivo, ND4 Swiss Webster mice
- assay_setup: male, ND4 Swiss Webster, mouse, plasma, ip, 12.5 mg/kg
metric: half-life
Just the number plus its unit, please.

*Q* Provide only the value of recorded half-life for O=C1C(=Cc2ccccn2)CNCC1=Cc1ccccn1
*A* 2.2 h
